assay: Plasma chemistry markers after subcutaneous administration in beagle dogs (Example 8); conditions: 30 mg/kg subcutaneous days 1, 3, 5, 8, 15, 22, 29, plasma at day 31
Provide the reported BUN of each item.
Numbers only, in mg/dL.

The following substances have reported results that may help.
[
  {
    "SUBSTANCE": "829994 (GGAGGCAGGGCCGCGA; 3-10-3 cEt gapmer, further chemistry not given here) [compound 829994]",
    "MEASUREMENT": 15.4
  },
  {
    "SUBSTANCE": "790615 (CCAATGAGAATGCTTC; 3-10-3 cEt gapmer, further chemistry not given here) [compound 790615]",
    "MEASUREMENT": 15.7
  },
  {
    "SUBSTANCE": "830025 (antisense TTTGTAAATCGAAAGC; 3-10-3 cEt gapmer, further chemistry not given here) [compound 830025]",
    "MEASUREMENT": 17.9
  },
  {
    "SUBSTANCE": "830121 (AGAATCAAGCCCTGGC; 3-10-3 cEt gapmer, further chemistry not given here) [compound 830121]",
    "MEASUREMENT": 20.0
  },
  {
    "SUBSTANCE": "830037 (antisense CTATTGGCTGATCTGG; 3-10-3 cEt gapmer, further chemistry not given here) [compound 830037]",
    "MEASUREMENT": 21.2
  }
]

Here's the next entry for you.
Q: I would be grateful if you could share the reported BUN for 798781 (CGTAAGATTCACAGCA; 3-10-3 cEt gapmer, further chemistry not given here) [compound 798781] .
Result: 19.4

* * *

Experiment: Hematology assays after oral gavage in CD-1 mice (Example 7)
Format: in vivo
Settings: 500 mg/kg oral gavage once daily for 4 weeks
Description: Groups of 7-8 week old male CD-1 mice were given an oral gavage dose once daily for 4 weeks of 500 mg/kg of Ionis SMAD7 oligonucleotides. Each group contained 8 mice. One group of male CD-1 mice was administered saline by oral gavage daily. Blood obtained from all mouse groups was measured by an ADVIA2120i hematology analyzer (Siemens, USA) for measurements of the various blood cells, as well as other hematology markers. […]
MEASUREMENT KIND: MCV (fL)
One number for each entry, in fL.

Use the examples below as a reference point.
[
  {
    "SUBSTANCE": "830121 (AGAATCAAGCCCTGGC; 3-10-3 cEt gapmer, further chemistry not given here) [compound 830121]",
    "MEASUREMENT": 51.6
  },
  {
    "SUBSTANCE": "830037 (antisense CTATTGGCTGATCTGG; 3-10-3 cEt gapmer, further chemistry not given here) [compound 830037]",
    "MEASUREMENT": 53.2
  },
  {
    "SUBSTANCE": "790615 (CCAATGAGAATGCTTC; 3-10-3 cEt gapmer, further chemistry not given here) [compound 790615]",
    "MEASUREMENT": 51.6
  }
]

Hello, I would appreciate it if you could give MCV for each entry below.
1. 798781 (CGTAAGATTCACAGCA; 3-10-3 cEt gapmer, further chemistry not given here) [compound 798781]
2. 830025 (antisense TTTGTAAATCGAAAGC; 3-10-3 cEt gapmer, further chemistry not given here) [compound 830025]
3. 829994 (GGAGGCAGGGCCGCGA; 3-10-3 cEt gapmer, further chemistry not given here) [compound 829994]

Result:
51.7
52.3
51.2
